Target: DNA (cytosine-5)-methyltransferase 3A (Homo sapiens, UniProt Q9Y6K1)
Sequence (Q9Y6K1 whole entry, looked up): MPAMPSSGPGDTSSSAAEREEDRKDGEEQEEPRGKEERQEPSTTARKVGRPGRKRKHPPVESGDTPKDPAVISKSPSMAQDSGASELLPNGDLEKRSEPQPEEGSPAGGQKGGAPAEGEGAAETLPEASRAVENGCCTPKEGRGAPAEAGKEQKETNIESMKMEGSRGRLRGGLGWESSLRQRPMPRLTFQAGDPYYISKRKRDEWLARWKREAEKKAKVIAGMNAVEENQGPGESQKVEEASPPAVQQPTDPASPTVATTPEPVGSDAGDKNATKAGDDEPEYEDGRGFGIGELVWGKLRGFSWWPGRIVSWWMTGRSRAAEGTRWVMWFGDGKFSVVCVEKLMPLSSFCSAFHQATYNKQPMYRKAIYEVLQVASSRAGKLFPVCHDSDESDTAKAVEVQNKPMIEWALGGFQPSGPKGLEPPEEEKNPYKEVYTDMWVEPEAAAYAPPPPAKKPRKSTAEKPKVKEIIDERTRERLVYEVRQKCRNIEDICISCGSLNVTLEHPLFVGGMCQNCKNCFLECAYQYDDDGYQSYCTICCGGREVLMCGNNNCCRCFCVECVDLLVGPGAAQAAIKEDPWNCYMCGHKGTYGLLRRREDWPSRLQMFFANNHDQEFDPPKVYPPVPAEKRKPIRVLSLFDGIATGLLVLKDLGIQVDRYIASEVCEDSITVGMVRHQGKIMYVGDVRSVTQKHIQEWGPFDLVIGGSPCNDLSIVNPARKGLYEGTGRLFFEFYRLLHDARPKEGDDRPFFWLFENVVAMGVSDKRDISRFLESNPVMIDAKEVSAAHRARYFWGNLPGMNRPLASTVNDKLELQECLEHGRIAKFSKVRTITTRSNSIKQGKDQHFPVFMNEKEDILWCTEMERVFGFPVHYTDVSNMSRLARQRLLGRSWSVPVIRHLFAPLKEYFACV
Test: Inhibition of C-terminal biotin-labelled human DNMT3A by multilabel plate reader analysis
Measure: IC50 (µM)
The reply should contain only the number, in µM.

| Structure smiles string | Measure | Units | Recorded number |
| --- | --- | --- | --- |
| O=C(Nc1ccc(Nc2ccnc3ccccc23)cc1)c1cccc(Nc2ccnc3ccccc23)c1 | IC50 | µM | 0.8 |

Now look at this one.
Please look up its IC50: O=C(Nc1ccc(Nc2ccnc3ccccc23)cc1)c1ccc(Nc2ccncc2)cc1 6

---

// reported IC50 for each item listed
Tested on: HeLa
Experiment: Antiproliferative activity against human HeLa cells
Type: functional, cell-based
Report only the number, with the unit µM understood.

| Structure smiles string | Measure | Recorded number |
| --- | --- | --- |
| COc1cc(NC(=O)NOCCCCCC(=O)NO)c2nc(OC)cc(C)c2c1 | IC50 | 11 |

We next turn to a different compound, shown below.
Look at this compound and give its reported IC50. NCCCOc1cc(NC(=O)c2cc(Cl)cc(C(=O)Nc3cc(OCCCN)c4ccccc4n3)n2)nc2ccccc12 0.3

Reference source for all entries: ChEMBL document CHEMBL5241080
